Protocol details: Equilibrium solubility of Plinabulin in propylene glycol-D5W diluents (HPLC)
Type: physicochemical
Condition description: propylene glycol-D5W diluent, 25 °C, saline or isotonic, thermodynamic from solid, Test Sample 3 (1:50) dilution level, 49 h, read-out: Test Concentration (equilibrium solubility)
Value kind: solubility thermodynamic at 49 h (µg/mL)
Quick note: give the figure in µg/mL, leave out the unit.

Output measured solubility thermodynamic at 49 h for this item: CC(C)(C)c1[nH]cnc1/C=c1\[nH]c(=O)/c(=C/c2ccccc2)[nH]c1=O
0.113

* * *

Protocol details: Equilibrium solubility of Plinabulin in propylene glycol-D5W diluents (HPLC)
Format: physicochemical
Condition description: propylene glycol-D5W diluent, 25 °C, saline or isotonic, thermodynamic from solid, Test Sample 1 (1:20) dilution level, 49.5 h, read-out: Test Concentration (equilibrium solubility)
Value kind: solubility thermodynamic at 49.5 h (µg/mL)
Report the figure in µg/mL without appending any unit label.

Quick one: give measured solubility thermodynamic at 49.5 h for CC(C)(C)c1[nH]cnc1/C=c1\[nH]c(=O)/c(=C/c2ccccc2)[nH]c1=O [Plinabulin]
0.152

* * *

Protocol details: Equilibrium solubility of Plinabulin in propylene glycol-D5W diluents (HPLC)
Format: physicochemical
Condition description: propylene glycol-D5W diluent, 25 °C, saline or isotonic, thermodynamic from solid, Test Sample 2 (1:30) dilution level, 94.5 h, read-out: Test Concentration (equilibrium solubility)
Value kind: solubility thermodynamic at 94.5 h (µg/mL)
Quick reminder: number only, in µg/mL, skip the unit.

// fetch solubility thermodynamic at 94.5 h given entry CC(C)(C)c1[nH]cnc1/C=c1\[nH]c(=O)/c(=C/c2ccccc2)[nH]c1=O
0.113

* * *

Protocol details: Equilibrium solubility of Plinabulin in propylene glycol-D5W diluents (HPLC)
Format: physicochemical
Condition description: propylene glycol-D5W diluent, 25 °C, saline or isotonic, thermodynamic from solid, Test Sample 2 (48.5 h), Diluent 2 (about 4 g propylene glycol + 200 ml D5W, 1:30), 100 rpm, read-out: Control Group - Diluent Test Concentration
Description: Corresponding propylene glycol-D5W injections were prepared. The preparation process was as follows: • Diluent 1 (corresponding to a dilution ratio of 1:20). […] Acceptance criteria: The concentration of Plinabulin in each solution was determined until there was no significant difference between two consecutive determinations, i.e., equilibrium solubility. […]
Value kind: solubility thermodynamic at 48.5 h (µg/mL)
Lab book: enter the figure in µg/mL, no units written.

Tell me its solubility thermodynamic at 48.5 h given CC(C)(C)c1[nH]cnc1/C=c1\[nH]c(=O)/c(=C/c2ccccc2)[nH]c1=O as the entry.
0.13

* * *

Protocol details: Equilibrium solubility of Plinabulin in propylene glycol-D5W diluents (HPLC)
Format: physicochemical
Condition description: propylene glycol-D5W diluent, 25 °C, saline or isotonic, thermodynamic from solid, Test Sample 2 (1:30) dilution level, 73 h, read-out: Test Concentration (equilibrium solubility)
Value kind: solubility thermodynamic at 73 h (µg/mL)
# unit: µg/mL | format: bare number

Return reported solubility thermodynamic at 73 h. Input compound: CC(C)(C)c1[nH]cnc1/C=c1\[nH]c(=O)/c(=C/c2ccccc2)[nH]c1=O [Plinabulin]
0.112

* * *

Protocol details: Equilibrium solubility of Plinabulin in propylene glycol-D5W diluents (HPLC)
Type: physicochemical
Condition description: propylene glycol-D5W diluent, 25 °C, saline or isotonic, thermodynamic from solid, Test Sample 2 (1:30) dilution level, 48.5 h, read-out: Test Concentration (equilibrium solubility)
Value kind: solubility thermodynamic at 48.5 h (µg/mL)
Unit µg/mL implied. Number only.

Return the recorded solubility thermodynamic at 48.5 h value; entry: CC(C)(C)c1[nH]cnc1/C=c1\[nH]c(=O)/c(=C/c2ccccc2)[nH]c1=O
0.125
